Reference source for all entries: patent US4122184A

Could you please report measured average mortality rating for the items listed next?
- System: Potato Flea Beetle Adults
- experimental protocol: Field trial, contact poison test
- Type: in vivo
- stated conditions: 25 ppm

Exam item: # lookup: average mortality rating of `CCCCCCOC(=O)n1c(C(F)(F)F)nc2c([N+](=O)[O-])cc(C(F)(F)F)cc21`
Marked response: 9 (91-100 percent mortality)

Exam item: average mortality rating lookup needed for `O=[N+]([O-])c1cc(C(F)(F)F)cc2nc(C(F)(F)F)[nH]c12` , thanks.
Marked response: 9 (91-100 percent mortality)

Exam item: # query: average mortality rating of entry `O=[N+]([O-])c1cc(C(F)(F)F)cc2nc(C(F)F)[nH]c12`
Marked response: 6

Please go through the list and note average mortality rating for each compound.
1. CC(C)OC(=O)n1c(C(F)(F)F)nc2c([N+](=O)[O-])cc(C(F)(F)F)cc21
2. CCN(CC)C(=O)n1c(SC(F)(F)F)nc2c([N+](=O)[O-])cc(SC(F)(F)F)cc21
3. O=[N+]([O-])c1cc(C(F)(F)F)cc2c1nc(C(F)(F)F)n2S(=O)(=O)c1ccccc1

Marked response:
1: 9 (91-100 percent mortality); 2: 8; 3: 8

---

- System: Unidentified Green Leafhopper
- experimental protocol: Field trial, stomach poison test
- Format: in vivo
- Set-up: key: mortality rating on a 0 to 9 scale
- stated conditions: 10 ppm
readout: average mortality rating
Answers are plain numbers.

Go through the list and state average mortality rating for each entry.
1. CCOC(=O)n1c(C(F)(F)F)nc2c([N+](=O)[O-])cc(C(F)(F)F)cc21 [U]
2. O=[N+]([O-])c1cc(C(F)(F)F)cc2c1nc(C(F)(F)F)n2S(=O)(=O)c1ccccc1 [F]
3. CCN(CC)C(=O)n1c(SC(F)(F)F)nc2c([N+](=O)[O-])cc(SC(F)(F)F)cc21 [S]
4. O=[N+]([O-])c1cc(C(F)(F)F)cc2nc(C(F)(F)F)[nH]c12 [A]
5. CCCCCCOC(=O)n1c(C(F)(F)F)nc2c([N+](=O)[O-])cc(C(F)(F)F)cc21 [E]

Marked response:
1: 3; 2: 1; 3: 3; 4: 4; 5: 4

Exam item: Recorded average mortality rating of CC(C)OC(=O)n1c(C(F)(F)F)nc2c([N+](=O)[O-])cc(C(F)(F)F)cc21 [I] , please.
Marked response: 2

---

Give measured average mortality rating for each item. Keep answers brief.
- Test system: Striped Cucumber Beetle Adults
- experimental protocol: Field trial, stomach poison test
- Type: in vivo
- Set-up: key: mortality rating on a 0 to 9 scale
- stated conditions: 25 ppm
Numbers only.

Previously resolved entries follow.
Exam item: Tell me the measured average mortality rating of `O=[N+]([O-])c1cc(C(F)(F)F)cc2nc(C(F)F)[nH]c12` , please.
Marked response: 3

Exam item: Which average mortality rating value belongs to `CCOC(=O)n1c(C(F)(F)F)nc2c([N+](=O)[O-])cc(C(F)(F)F)cc21` ?
Marked response: 1

Exam item: I would be grateful if you could share the reported average mortality rating for `O=[N+]([O-])c1cc(C(F)(F)F)cc2nc(C(F)(F)F)[nH]c12` .
Marked response: 3

Exam item: What does the record list as average mortality rating for `CCCCCCOC(=O)n1c(C(F)(F)F)nc2c([N+](=O)[O-])cc(C(F)(F)F)cc21` ?
Marked response: 1

Give average mortality rating for all compounds that follow.
1. CC(C)OC(=O)n1c(C(F)(F)F)nc2c([N+](=O)[O-])cc(C(F)(F)F)cc21
2. O=[N+]([O-])c1cc(C(F)(F)F)cc2c1nc(C(F)(F)F)n2S(=O)(=O)c1ccccc1

Marked response:
1. 3
2. 3

---

Provide the recorded average mortality rating for the entries that follow.
- System: Southern Corn Rootworm Adults
- experimental protocol: Field trial, stomach poison test
- Type: in vivo
- Design: key: mortality rating on a 0 to 9 scale
- stated conditions: 50 ppm
One number for each entry.

Here is how some molecules turned out for average mortality rating.
Exam item: I have this molecule here, `O=[N+]([O-])c1cc(C(F)(F)F)cc2c1nc(C(F)(F)F)n2S(=O)(=O)c1ccccc1` , and I need its recorded average mortality rating.
Marked response: 4

Exam item: Look up average mortality rating: `O=[N+]([O-])c1cc(C(F)(F)F)cc2nc(C(F)(F)F)[nH]c12.[Na]`
Marked response: 5

Exam item: I have this molecule here, `O=[N+]([O-])c1cc(C(F)(F)F)cc2nc(C(F)(F)F)[nH]c12` , and I need its recorded average mortality rating.
Marked response: 6

Exam item: Item under review: `CCCCCCOC(=O)n1c(C(F)(F)F)nc2c([N+](=O)[O-])cc(C(F)(F)F)cc21` . Reported average mortality rating?
Marked response: 5

Exam item: Consider the molecule shown here: `O=[N+]([O-])c1cc(C(F)(F)F)cc2[nH]c(C(F)(F)Cl)nc12` What is its recorded average mortality rating?
Marked response: 4

Kindly review the next molecule as well.
Exam item: average mortality rating for `CCOC(=O)n1c(C(F)(F)F)nc2c([N+](=O)[O-])cc(C(F)(F)F)cc21` ?
Marked response: 3

---

- experimental protocol: Acute dermal toxicity
- Assay type: in vivo
- stated conditions: in vivo, topical or ocular, rabbit, male, read-out: Est. LD50
- Description: While the compounds of this invention resemble the organic phosphates in being toxic upon ingestion, they differ from the organic phosphates in having a low toxicity when applied to the skin. The following charts give the estimated acute oral and acute dermal toxicities of 2,6-bis(trifluoromethyl)-4-nitrobenzimidazole in several species of mammals.
readout: LD50

Exam item: Returns the measured LD50 for the input molecule. Input: `O=[N+]([O-])c1cc(C(F)(F)F)cc2nc(C(F)(F)F)[nH]c12`
Marked response: > 500 mg/kg

---

- Tested on: Alfalfa Weevil Larvae
- experimental protocol: Field trial, contact poison test
- Assay type: in vivo
- stated conditions: 1000 ppm
- Experimental: Infested plants are placed in 6 oz. prescription bottles filled with water to keep them from wilting. Cellucotton is wrapped around the plant stem and squeezed into the bottle neck to prevent the insects from drowning. A DeVilbiss Special Atomizer (5004) is used at 10 psi to spray the test plant with different concentrations of compounds. The atomizer is held at arm's length to prevent blowing the insects off the host plant. […] The results are read at 24, 48, and 72 hours when applicable. […]
readout: average mortality rating
Give bare numbers.

Example compounds with recorded average mortality rating:
Exam item: Fill blank: measured average mortality rating of the compound `CC(C)OC(=O)n1c(C(F)(F)F)nc2c([N+](=O)[O-])cc(C(F)(F)F)cc21` is ____.
Marked response: 1

Exam item: Fill blank: measured average mortality rating of the compound `O=[N+]([O-])c1cc(C(F)(F)F)cc2nc(C(F)(F)F)[nH]c12` is ____.
Marked response: 5

Exam item: What value of measured average mortality rating is listed for `CCCCCCOC(=O)n1c(C(F)(F)F)nc2c([N+](=O)[O-])cc(C(F)(F)F)cc21` ?
Marked response: 4

Continuing:
Exam item: Requested field: average mortality rating. Item: `O=[N+]([O-])c1cc(C(F)(F)F)cc2c1nc(C(F)(F)F)n2S(=O)(=O)c1ccccc1`
Marked response: 8

---

- Tested on: Aphids - Apple
- experimental protocol: Field trial, stomach poison test
- Type: in vivo
- stated conditions: 100 ppm
readout: average mortality rating
Numbers only.

Give average mortality rating for each listed item.
1. O=[N+]([O-])c1cc(C(F)(F)F)cc2nc(C(F)(F)F)[nH]c12 [A]
2. CCOC(=O)n1c(C(F)(F)F)nc2c([N+](=O)[O-])cc(C(F)(F)F)cc21 [U]

Marked response:
1. 4
2. 6

Consider the following items and state reported average mortality rating for each.
1. O=[N+]([O-])c1cc(C(F)(F)F)cc2[nH]c(C(F)(F)Cl)nc12 [L]
2. CCCCCCOC(=O)n1c(C(F)(F)F)nc2c([N+](=O)[O-])cc(C(F)(F)F)cc21 [E]

Marked response:
1: 4; 2: 7

---

- System: Bean Leaf Beetle
- experimental protocol: Field trial, contact poison test
- Format: in vivo
- stated conditions: 50 ppm
readout: average mortality rating

Answered examples (4):
Exam item: Fill in: average mortality rating of `O=[N+]([O-])c1cc(C(F)(F)F)cc2nc(C(F)(F)F)[nH]c12` is ___
Marked response: 0 (0-10 percent)

Exam item: Query (compound): `O=[N+]([O-])c1cc(C(F)(F)F)cc2[nH]c(C(F)(F)Cl)nc12` ; field requested: average mortality rating
Marked response: 4

Exam item: So what does the record say about average mortality rating for `CC(C)OC(=O)n1c(C(F)(F)F)nc2c([N+](=O)[O-])cc(C(F)(F)F)cc21` ?
Marked response: 0 (0-10 percent)

Exam item: # average mortality rating lookup, item `O=[N+]([O-])c1cc(C(F)(F)F)cc2nc(C(F)F)[nH]c12`
Marked response: 0 (0-10 percent)

Continue with the next compound.
Exam item: Need average mortality rating of `CCCCCCOC(=O)n1c(C(F)(F)F)nc2c([N+](=O)[O-])cc(C(F)(F)F)cc21` , thanks.
Marked response: 0 (0-10 percent)
